- Assay Info: yeast display, Sf9 membrane polyspecificity reagent, FACS + sequencing; frameworks hold sequencing errors

{"columns": ["Query Sequence", "polyreactivity (PSR sort gate)"],
 "data": [
  ["QVQLVESGGGLVQAGGSLRLSCAASGSTFYSYTMGWYRQAPGKERELVAAISRSAGSTYYADSVKGRFTISRDHAKNTVYLQMNSLKPEVTAVYYCAATLGRTYYSRWYGMDYWGQGTQVTVSS", "high polyreactivity"],
  ["QVQLVESGGGLVQAGGSLRLSCAASGRIFWGYAMGWYRQAPGKERELVAGITSGGITNYADSVKGRFTISRDNAKNTVYLQMNSLKPEDTAVYYCNKDFWGYPRVRYYYWGQGTQVNVSS", "high polyreactivity"]
]}
